Quick list: EC50 per entry.
- TARGET DESC: UniProt:P08173
- Sequence (P08173 1-479): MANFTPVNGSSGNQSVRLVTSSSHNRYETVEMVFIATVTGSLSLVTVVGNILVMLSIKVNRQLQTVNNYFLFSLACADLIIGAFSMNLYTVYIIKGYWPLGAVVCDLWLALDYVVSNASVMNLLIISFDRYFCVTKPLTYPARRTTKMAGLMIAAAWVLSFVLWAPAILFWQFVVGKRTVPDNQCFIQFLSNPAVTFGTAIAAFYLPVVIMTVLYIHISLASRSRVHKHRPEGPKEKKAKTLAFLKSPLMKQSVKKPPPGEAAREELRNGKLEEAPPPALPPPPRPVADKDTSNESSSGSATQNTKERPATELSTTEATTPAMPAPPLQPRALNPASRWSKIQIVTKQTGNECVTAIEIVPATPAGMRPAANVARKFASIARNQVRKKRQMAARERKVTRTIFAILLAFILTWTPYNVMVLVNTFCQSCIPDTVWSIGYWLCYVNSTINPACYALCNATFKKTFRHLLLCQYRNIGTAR
- TEST DESCRIPTION: mAChR M4 cell-based functional assay: calcium mobilization (Fluo-4, FDSS), potentiation of EC20 acetylcholine response in hM4-Gqi5 CHO-K1 cells
- PROTOCOL CONDITIONS: potentiation of EC20 acetylcholine response, calcium mobilization, human M4
Please give a number only; it is taken to be in nM.

Cc1cc(=O)n2nc(N3CCc4ncc(-c5ccc(F)cc5F)cc4C3)c(C)c(C)c2n1 : 1120
Cc1ccc(-c2cnc3c(c2)CN(c2nn4c(=O)c(C)cnc4c(C)c2C)CC3)cn1 : 134

Fill in EC50 for record Cc1ccc(-c2cnc3c(c2)CN(c2nn4c(=O)ccnc4c(C)c2C2CC2)CC3)cn1
668

Give EC50 for the following molecule: Cc1cc(=O)n2nc(N3CCc4ncc(-c5ccc6nccn6c5)cc4C3)c(C)cc2n1
747

Supply reported EC50 belonging to this molecule: Cc1cc2nccc(=O)n2nc1N1CCc2ncc(Nc3ccc(C(C)C)nc3)cc2C1
527

Write down EC50 measured for item Cc1c(N2CCc3ncc(-c4ccccc4C(C)C)cc3C2)nn2c(=O)ccnc2c1C
503

Identify EC50 associated with the molecule Cc1c(N2CCc3ncc(-c4cnn(C5COC5)c4)cc3C2)nn2c(=O)cc(C(F)F)nc2c1C
203

Identify EC50 associated with the molecule Cc1cc(=O)n2nc(N3CCc4ncc(-c5ccc(C6CC6)nc5)cc4C3)c(C)cc2n1
174

Answer with reported EC50 of Cc1ccc(-c2cnc3c(c2)CN(c2nn4c(=O)cc(C(F)F)nc4cc2C)CC3)cn1
88
